assay remarks: Neurotoxicity assay: MTS viability of primary cortical neuronal cultures
Format: cell-based, mouse
condition set: BL6Jx129sv, mouse, primary cortical neuronal cultures, Neuronal cells, test compound 10 uM; read-out: Cytotoxicity (% viable at 1 and 10 uM)
measurement label: viability at 4 days, 10 uM (%)
Provide only the numeric value, understood in %.

# count of solved cases: 2
                                 mol_smiles  obs_value
0                    Oc1c(C2CC2)ncc2cccnc12         98
1  O=C(CNC(=O)c1cc(O)c2cccc(O)c2n1)NCc1ccccn1         93

Enquiry: Using the record for O=C(Nc1nccs1)c1ccc2cccc(O)c2n1 , report its viability at 4 days, 10 uM.
Return: 100

* * *

assay remarks: In vivo toxicity, visual observations
condition set: 30 mg/kg, number of days
measurement label: Toxicity at 30 mg/kg

# count of solved cases: 4
In [3]: df
Out[3]:
                                 compound     measurement_label            obs_value
0                  CCCc1cnc2c(O)cccn2c1=O  Toxicity at 30 mg/kg        10 days, none
1  Cc1cnc(-n2cnc3c(O)c(Cl)cc(Cl)c3c2=O)s1  Toxicity at 30 mg/kg  10 days, mild signs
2     O=c1c2c(Cl)cc(Cl)c(O)c2ncn1Cc1nccs1  Toxicity at 30 mg/kg        10 days, none
3      O=C(O)Cn1cnc2c(O)c(Cl)cc(Cl)c2c1=O  Toxicity at 30 mg/kg        10 days, none

Enquiry: Using the record for O=c1c2c(Cl)cc(Cl)c(O)c2ncn1-c1ccccn1 [drawing 288] , report its Toxicity at 30 mg/kg.
Return: 10 days, none

Enquiry: Using the record for O=c1c2c(Cl)cc(Cl)c(O)c2ncn1C1CC1 , report its Toxicity at 30 mg/kg.
Return: 10 days, none

Enquiry: Using the record for Cc1noc(C)c1-n1cnc2c(O)c(Cl)cc(Cl)c2c1=O , report its Toxicity at 30 mg/kg.
Return: 10 days, none

Enquiry: Using the record for COc1ccc(-n2cnc3c(O)c(Cl)cc(Cl)c3c2=O)nc1 , report its Toxicity at 30 mg/kg.
Return: 10 days, none

Enquiry: Using the record for Cc1noc(C)c1Cn1cnc2c(O)c(Cl)cc(Cl)c2c1=O , report its Toxicity at 30 mg/kg.
Return: 10 days, none

Enquiry: Using the record for CCCCc1cnc2c(O)c(I)ccn2c1=O , report its Toxicity at 30 mg/kg.
Return: 10 days, 2/4 deaths

* * *

Below, each entry is listed alongside its reported viability at 10 uM.
assay remarks: Cytotoxicity: viability of M17 cells
condition set: human, M17 neuroblastoma cells, Cytotoxicity (% viable at 1 and 10 uM), test compound 10 uM
Provide only the numeric value, understood in %.

# count of solved cases: 3
In [3]: df
Out[3]:
                            mol_smiles  obs_value
0     O=c1c2cccc(O)c2ncn1-c1ccc(F)cc1F        104
1  O=c1c2ccc(I)c(O)c2ncn1-c1ccc(F)cc1F       80.3
2   CCCCc1cnc2c(O)c(-c3cccnc3)ccn2c1=O       38.2

Enquiry: Using the record for O=c1c2c(Cl)cc(Cl)c(O)c2ncn1Cc1cn2ccccc2n1 , report its viability at 10 uM.
Return: 98.2

Enquiry: Using the record for O=c1c2c(Cl)cc(Cl)c(O)c2ncn1CCNCc1ccncc1 , report its viability at 10 uM.
Return: 105

* * *

assay remarks: Neurotoxicity assay: MTS viability of primary cortical neuronal cultures
Format: cell-based, mouse
condition set: BL6Jx129sv, mouse, primary cortical neuronal cultures, Neuronal cells, test compound 10 uM; read-out: Cytotoxicity (% viable at 1 and 10 uM)
Below, each entry is listed alongside its reported viability at 4 days, 10 uM.
Provide only the numeric value, understood in %.

# count of solved cases: 10
>>> df
                                 mol_smiles           measurement_label  unit_name  obs_value
0  Oc1cccc2ccc(CN(CCc3c[nH]cn3)Cc3ccccn3)nc12  viability at 4 days, 10 uM          %         27
1       O=C(NCc1ccccn1)c1cc(O)c2cccc(O)c2n1  viability at 4 days, 10 uM          %        100
2  O=C(NCCc1c[nH]cn1)c1ccc2c(Cl)cc(Cl)c(O)c2n1  viability at 4 days, 10 uM          %         84
3        Oc1c(Cl)cc(Cl)c2ccc(-c3ccccn3)nc12  viability at 4 days, 10 uM          %         31
4  Cn1cnc(CCNC(=O)c2ccc3c(Cl)cc(Cl)c(O)c3n2)c1  viability at 4 days, 10 uM          %         88
5                Cc1cnc2c(Cl)cc(Cl)c(O)c2n1  viability at 4 days, 10 uM          %         93
6             CCOC(=O)c1cnc2c(O)c(CC)ncc2c1  viability at 4 days, 10 uM          %         92
7           O/N=C/c1ccc2c(Cl)cc(Cl)c(O)c2n1  viability at 4 days, 10 uM          %         70
8           COc1ccccc1-c1cc(I)c(O)c2ncccc12  viability at 4 days, 10 uM          %         35
9    Oc1c(-c2ccccc2C(F)(F)F)cc(Cl)c2cccnc12  viability at 4 days, 10 uM          %         93

Enquiry: Using the record for O=c1c2c(Cl)cc(Cl)c(O)c2ncn1Nc1ccc(F)cc1F , report its viability at 4 days, 10 uM.
Return: 92

Enquiry: Using the record for Cc1nc(Cn2cnc3c(O)c(Cl)cc(Cl)c3c2=O)cs1 , report its viability at 4 days, 10 uM.
Return: 93
